TARGET_ENTITY: UniProtKB P36544
Sequence (P36544 23-502): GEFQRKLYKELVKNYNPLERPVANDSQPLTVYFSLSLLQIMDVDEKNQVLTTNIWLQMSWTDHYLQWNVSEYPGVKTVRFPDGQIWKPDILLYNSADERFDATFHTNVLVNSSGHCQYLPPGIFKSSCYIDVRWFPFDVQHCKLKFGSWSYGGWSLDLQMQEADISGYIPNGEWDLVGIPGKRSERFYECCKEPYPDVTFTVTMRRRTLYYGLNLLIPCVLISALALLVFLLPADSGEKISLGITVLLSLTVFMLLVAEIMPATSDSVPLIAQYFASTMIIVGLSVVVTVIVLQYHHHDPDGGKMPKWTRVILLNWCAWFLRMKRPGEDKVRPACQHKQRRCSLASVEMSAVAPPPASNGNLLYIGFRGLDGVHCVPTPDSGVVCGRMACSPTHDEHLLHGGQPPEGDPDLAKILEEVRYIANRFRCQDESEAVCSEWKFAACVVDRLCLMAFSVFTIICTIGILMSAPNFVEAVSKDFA
PROCEDURE_DETAILS: α7 NNR flux assay (FDSS Ca assay)
RUN_PARAMETERS: positive allosteric modulation; rat GH4C1 cell line stably expressing human α7; acetylcholine 20 μM; % modulation relative to PNU-120596 set to 100%
OBSERVABLE: EC50 (µM)
Give bare numbers, in µM.

MOLECULE | TARGET_ENTITY | ENDPOINT_UNIT | RECORDED_VALUE
Cc1cc(C(=O)NCc2ccc3c(c2)cc(C)n3C(F)F)on1 | UniProtKB P36544 | µM | 9.3
Cc1cc2cc([C@@H](C)NC(=O)c3cnn(CCF)c3)ccc2[nH]1 | UniProtKB P36544 | µM | 1.7
Cc1cc(C(=O)NCc2ccc3[nH]c(C(F)F)cc3c2)on1 | UniProtKB P36544 | µM | 8.3
Cc1cc2cc(CNC(=O)c3cnn(CC(F)(F)F)c3)ccc2n1C(F)(F)F | UniProtKB P36544 | µM | 11
O=C(NCc1ccc2[nH]ccc2c1)c1cc(CCF)no1 | UniProtKB P36544 | µM | 4.3
Cc1cc2cc(CNC(=O)c3cnn(C(C)C)c3)ccc2[nH]1 | UniProtKB P36544 | µM | 2.9
Cc1cc2cc(CNC(=O)c3c(C)noc3C)ccc2[nH]1 | UniProtKB P36544 | µM | 0.44
Cc1cc(C(=O)N[C@H](C)c2ccc3[nH]c(C)cc3c2F)on1 | UniProtKB P36544 | µM | 6
Cc1cc(C(=O)NCc2ccc3c(c2)cc(C(F)(F)F)n3C)on1 | UniProtKB P36544 | µM | 5.6
Cn1c(C(F)(F)F)cc2cc(CNC(=O)c3cc(CC(F)(F)F)no3)ccc21 | UniProtKB P36544 | µM | 5

Items follow; give EC50 for each.
1. Cc1cc(C(=O)NCc2ccc3[nH]c(C)c(C)c3c2)on1
2. Cc1cc2cc(CNC(=O)c3ncc(C)o3)ccc2[nH]1
3. Cc1cc2cc(CNC(=O)c3ccco3)ccc2[nH]1
4. Cc1cc2cc(CNC(=O)c3ccsc3)ccc2[nH]1
5. Cc1cc(C(=O)NC(C)c2ccc3[nH]c(C)cc3c2)on1 (racemic)
6. Cc1cc2cc(CNC(=O)c3sc(=O)n(C)c3C)ccc2[nH]1
7. COc1cc(C(=O)NCc2ccc3[nH]c(C)cc3c2)on1

Response:
1. 7.7
2. 9.9
3. 4
4. 0.52
5. 2.63
6. 4.1
7. 4.6
